tested on: genes regulating the NF-κB pathway in human umbilical vein endothelial cells (HUVEC); experiment: NF-κB pathway-specific gene expression microarray in HUVEC treated with PR peptides; format: cell-based; details: HUVEC, PR peptides 1 μM, 8 hours, relative to untreated controls
Marks after values point to notes of the source that are not given here. Ends that are not written are not given here.
Assay Endpoint: MEKK2 gene expression

Solved cases below.
RRRPRPPYLPR [PR11, reference compound] ... −2.6* fold change
RRKPRPPYLPR [Peptide K3] ... −1.9^# fold change

Reported MEKK2 gene expression for RRRPRPPYLPRW [Peptide W12] was −2.4^# fold change

The reported value for RRAPRPPYLPR [Peptide A3] in terms of MEKK2 gene expression is −2.1* fold change

MEKK2 gene expression recorded for this sequence, KRRPRPPELPR [Peptide K1E8] , is −3.0^# fold change

----------
tested on: genes regulating the NF-κB pathway in human umbilical vein endothelial cells (HUVEC); assay: NF-κB pathway-specific gene expression microarray in HUVEC treated with PR peptides; format: cell-based; conditions: HUVEC, PR peptides 1 μM, 8 hours, relative to untreated controls
Marks after values point to notes of the source that are not given here. Ends that are not written are not given here.
Assay Endpoint: P38 MAPK gene expression

KRRPRPPELPR [Peptide K1E8] ... −2.6^# fold change

GET /value?item= RRRPRPPYLPR [PR11, reference compound] &field=P38 MAPK gene expression returns −3.6^# fold change

Entry RRRPRPPYLPRW [Peptide W12] , P38 MAPK gene expression reported as −2.5^# fold change

RRAPRPPYLPR [Peptide A3] has a reported P38 MAPK gene expression of −1.9* fold change

// P38 MAPK gene expression value for RRKPRPPYLPR [Peptide K3] : −1.7* fold change

----------
Consider the following sequences and their measured pIC50 readings.
biological target: Mammalian (Human) 20s Proteasome (Homo sapiens); construct: purchased Boston Biochem (Cambridge, Mass.); assay: Chymotrypsin-like (ChT-L) peptidase activity of 20S proteasome, N-succinyl-LLVY-AMC substrate; type: biochemical; conditions: chymotrypsin-like activity, 15-minute pre-incubation, 1 hour at 37° C., pH 7.5, 0.03% SDS; read-out: I50
Ends that are not written are not given here.
For clarity, pIC50 is expressed as the negative log10 of concentration in mol/L.

Consider the following illustrative entries.
RRKPRPPYLPR [Peptide K3] ... 6.09
RARPRPPYLPR [Peptide A2] ... 5.56
KRRPRPPELPR [Peptide K1E8] ... 5.20

Given the sequence RRRPRPPYLAR [Peptide A10] and test system Mammalian (Human) 20s Proteasome (Homo sapiens), the measured pIC50 is 6.11

----------
system: genes regulating the NF-κB pathway in human umbilical vein endothelial cells (HUVEC); assay: NF-κB pathway-specific gene expression microarray in HUVEC treated with PR peptides; type: cell-based; conditions: HUVEC, PR peptides 1 μM, 8 hours, relative to untreated controls
Marks after values point to notes of the source that are not given here. Ends that are not written are not given here.
Assay Endpoint: TRAF6 gene expression

Known results for sequences:
KRRPRPPELPR [Peptide K1E8] ... −5.5* fold change
RRRPRPPYLPRW [Peptide W12] ... −3.1* fold change

Here is another sequence to look at.
RRRPRPPYLPR [PR11, reference compound] yielded TRAF6 gene expression of −2.4* fold change
